In this section, each of the compounds is paired with its reported pIC50.
System: pSTAT5/GM-CSF
experiment_description: pSTAT5/GM-CSF cellular assay (JAK2 selectivity)
Format: cell-based
pIC50: −log10 of the molar value.

// known answers, use as guide
| compound | pIC50 |
| --- | --- |
| CC(=O)Nc1cc(Nc2cc(Cl)cc(S(C)(=O)=O)n2)c(-c2ccn(C)n2)cn1 | < 5.00 |
| CO[C@H]1C[C@@H](c2cc(Nc3cc(NC(C)=O)ncc3-c3ccc4c(n3)OCC(C)(C)O4)nc(S(C)(=O)=O)c2)C1 | < 5.00 |
| COCCOc1ccc(-c2cnc(NC(C)=O)cc2Nc2cccc(S(C)(=O)=O)c2)nc1 [Example D2] | < 5.00 |
| CCS(=O)(=O)c1cccc(Nc2cc(NC(C)=O)ncc2-c2ccn(C)n2)n1 | < 5.00 |
| CC(=O)Nc1cc(Nc2cc(C(F)F)cc(S(C)(=O)=O)c2)c(-c2ccc(C(C)(C)O)cn2)cn1 | < 5.00 |

Summary for this compound, CC(=O)Nc1cc(Nc2cc(OCCO)cc(S(C)(=O)=O)n2)c(-c2ccn(C)n2)cn1 : pIC50 is < 5.00

Summary for this compound, COc1ccc(-c2cnc(NC(C)=O)cc2Nc2cc(N3C[C@@H](C)O[C@@H](C)C3)cc(S(C)(=O)=O)n2)nn1 : pIC50 is < 5.00

Summary for this compound, CC(=O)Nc1cc(Nc2cc(C)cc(S(C)(=O)=O)n2)c(-c2ccc(O[C@H]3CCOC3)cn2)cn1 : pIC50 is 5.60

Summary for this compound, CC(=O)Nc1cc(Nc2cccc(S(C)(=O)=O)n2)c(-c2ccc(OC3CCOC3)cn2)cn1 (stereo not shown) : pIC50 is 6.00

Summary for this compound, CC(=O)Nc1cc(Nc2cc(F)cc(S(C)(=O)=O)c2)c(-c2ccn(C)n2)cn1 : pIC50 is < 5.00

Summary for this compound, CC(=O)Nc1cc(Nc2cc(OC3CCCC3)cc(S(C)(=O)=O)n2)c(-c2ccn(C)n2)cn1 : pIC50 is < 5.00

Summary for this compound, CC(=O)Nc1cc(Nc2cc(-c3ccc(C#N)nc3)cc(S(C)(=O)=O)n2)c(-c2ccc3c(n2)OCC(C)(C)O3)cn1 : pIC50 is < 5.00

Summary for this compound, CC(=O)Nc1cc(Nc2nc(S(C)(=O)=O)ccc2C)c(-c2ccn(C)n2)cn1 : pIC50 is < 5.00

Summary for this compound, CC(=O)Nc1cc(Nc2cc(OCCO)cc(S(C)(=O)=O)c2)c(-c2cc(C)n(C)n2)cn1 : pIC50 is < 5.00

Summary for this compound, COCc1ccc(-c2cnc(NC(C)=O)cc2Nc2cc(OC(C)C)cc(S(C)(=O)=O)n2)nc1 : pIC50 is < 5.00

Summary for this compound, COc1cc(Nc2cc(NC(C)=O)ncc2-c2ccc(F)cn2)nc(S(C)(=O)=O)c1 : pIC50 is < 5.00

Summary for this compound, COc1cc(Nc2cc(NC(C)=O)ncc2-c2ccn(C)n2)cc(S(C)(=O)=O)c1 : pIC50 is < 5.00

Summary for this compound, CC(=O)Nc1cc(Nc2cc(OCC3(C)COC3)cc(S(C)(=O)=O)n2)c(-c2ccc3c(n2)OCC(C)(C)O3)cn1 : pIC50 is < 5.00

Summary for this compound, CC(=O)Nc1cc(Nc2cc(N3CCC4(CC4)C3)cc(S(C)(=O)=O)n2)c(-c2ccc3c(n2)OCC(C)(C)O3)cn1 : pIC50 is < 5.00

Summary for this compound, CCn1ccc(-c2cnc(NC(C)=O)cc2Nc2cccc(S(C)(=O)=O)c2)n1 : pIC50 is < 5.00

Summary for this compound, CCn1ccc(-c2cnc(NC(C)=O)cc2Nc2cc(OCCO)cc(S(C)(=O)=O)c2)n1 : pIC50 is < 5.00

Summary for this compound, CCOc1cc(Nc2cc(NC(C)=O)ncc2-c2ccn(CC)n2)nc(S(C)(=O)=O)c1 : pIC50 is < 5.00

Summary for this compound, COc1ccncc1-c1cc(Nc2cc(NC(C)=O)ncc2-c2ccc3c(n2)OCC(C)(C)O3)nc(S(C)(=O)=O)c1 : pIC50 is 6.43

Summary for this compound, CC(=O)Nc1cc(Nc2cc(C)cc(S(C)(=O)=O)n2)c(-c2ccn(C3CCOC3)n2)cn1 (stereo not shown) : pIC50 is 5.85

Summary for this compound, COc1cc(Nc2cc(NC(C)=O)ncc2-c2ccc3c(n2)OCC(C)(C)O3)nc(S(C)(=O)=O)c1 : pIC50 is 5.74

Source listed as patent US20240043435A1.
